Assay: Mouse Pharmacokinetic Experiment (plasma and brain)
Type: in vivo, Male ICR mice
Details: in vivo; mouse; iv 0.3 mg/kg, po 1 mg/kg
Experimental: Animal: Male ICR mice. Animals were randomly assigned to the treatment group and fasted for 12 hours before administration. Drug to be tested: The compounds were dissolved in solvent (0.5% CMC-Na). The intravenous (iv) dose was 0.3 mg/kg, with an administration volume of 5 ml/kg; the oral (po) dose was 1 mg/kg, with an administration volume of 10 mL/kg body weight. […] Data Analysis: Drug concentrations below the limit of quantitation (LLOQ) were recorded as zero. […]
readout name: bioavailability (%)
Give the quantity in %, number only.

Reported bioavailability for `O=C1CCc2ccc(CCN3CCN(c4cc(F)cc5c4CCO5)CC3)cc2N1` : what is it?
77

Cited source for all entries: patent EP4786467A1
